experimental-system: His-tagged cynomolgus monkey CD38 (ACRO Biosystems, CD8-05223 [sic]) (cynomolgus monkey) (UniProt Q5VAN0)
procedure-details: ELISA, 1 ug/ml scFv-Fc, coated His-tagged CD38
Measured ELISA signal values are reported for all entries that follow.
Please reply with the value in numeric form only.

In: Entry under review: 40769p2.1.E8 scFv-Fc (scFv, part only; not given: Linker, domain order, Fc, V domains shown, not shown: another chain or arm of the molecule; a dimerising Fc or GST; small tags and cut ends) VH: EVQLLESGGGLVQPGGSLRLSCTGFGFTFTDARMSWVRQAPGKGLEWVADISSYGDNTYYADSVKGRFTISRDNSANTLYVQMNSLRAEDTAVYYCAKRMEREVMTIKLDYHAMDVWGQGTTVTVSS VL: QSVLTQTPSVSGTPGQRVTISCSGVFNIRNYVSWYQQLPGTAPKLLIFKDDQRPSGVPDRFSGSRSGTSASLAISGLQSEDEADYYCAAWDIFLNVWVFGGGTKLTVL . Reported ELISA signal?
Out: 2.16

In: Repeat for the following binder: 40769p2.2.H4 scFv-Fc (scFv, part only; not given: Linker, domain order, Fc, V domains shown, not shown: another chain or arm of the molecule; a dimerising Fc or GST; small tags and cut ends) VH: EVQLLESGGGLVQPGGSLRLSCAASGFDFSSYWMNWVRQAPGKGLEWVSTISSGGSIIYYADSVKGQFTISRDNSKNTLYLQMNSLRAEDTAVYYCAKDNWNDYYGMDVWGQGTTVTVSS VL: QSVPTQPPSASGTPGQRVTISCSGSSSNIRDNYVYWYQQVPGTAPKLLIYKDDQRPSGVPDRFSGSKSGTSASLAISGLQSEDEADYYCATWDGSLNARVFGGGTKLTVL
Out: 1.47

Further cases:
In: Entry under review: 40769p2.1.E1 scFv-Fc (scFv, part only; not given: Linker, domain order, Fc, V domains shown, not shown: another chain or arm of the molecule; a dimerising Fc or GST; small tags and cut ends) VH: EVQLLESGGGLIQPGGSLRLSCTASGFDFSSYGMHWVRQAPGKGLEWVAIISDSGGTTYYGDSVKGRFTISRDNSKSTLYLQMNSLRAEDTALYYCASYIMDVWGQGTTVTVSS VL: QSVLTQPPSASGTPEQRVTISCSGSNSNVGDNAVYWYQQLPGTAPKLLFYGTNRRPSGVPDRFSGSKSGTSASLAISGLQSEDEADYYCAAWDDSLNAWVFGGGTKLTVL . Reported ELISA signal?
Out: 2.04
